Provide the recorded ECL signal for the entries that follow.
# system: T1, rHuman CD44/Fc Chimera, CF (R&D Systems Cat#3660-CD) (human, UniProt P16070 21-220)
# T1 construct: Bought recombinant Fc chimera; Fc part of the bought chimera not given
# assayProcedure: ECL multispot (MSD), antigen spotted, Fab in solution;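 note: purified Fab incubated 1 h at 20 °C on antigen-spotted wells, bound Fab detected via TAG detection antibody, ECL compared with each well's blank, ratio of 4 or above scored as hit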
Answer using only a numeral; do not append any unit.

Find the measured ECL signal of Fab VH1-46_IGHD6-6*01_IGHJ1*01 S102A/S103P/S104F/H111F (APFF) & L6_IGKJ1*01 S28W (Fab, V domains shown, Fab; VH cloned into Plasmid A (CH1, His6 and Flag tags) and VL into Plasmid C (kappa CL); also called APFF / S28W) VH: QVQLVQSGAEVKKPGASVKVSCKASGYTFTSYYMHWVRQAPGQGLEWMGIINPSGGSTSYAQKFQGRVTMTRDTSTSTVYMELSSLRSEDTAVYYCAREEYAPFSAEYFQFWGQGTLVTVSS VL: EIVLTQSPATLSLSPGERATLSCRASQWVSSYLAWYQQKPGQAPRLLIYDASNRATGIPARFSGSGSGTDFTLTISSLEPEDFAVYYCQQRSNWPPWTFGQGTKVEIKR and report it.
404

Find the measured ECL signal of Fab VH1-46_IGHD6-6*01_IGHJ1*01 S102A/S103P/S104F/H111F (APFF) & L6_IGKJ1*01 S30C (Fab, V domains shown, Fab; VH cloned into Plasmid A (CH1, His6 and Flag tags) and VL into Plasmid C (kappa CL); also called APFF / S30C) VH: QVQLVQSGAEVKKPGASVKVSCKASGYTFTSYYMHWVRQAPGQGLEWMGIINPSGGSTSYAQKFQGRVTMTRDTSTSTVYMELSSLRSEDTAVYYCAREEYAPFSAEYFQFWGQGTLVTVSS VL: EIVLTQSPATLSLSPGERATLSCRASQSVCSYLAWYQQKPGQAPRLLIYDASNRATGIPARFSGSGSGTDFTLTISSLEPEDFAVYYCQQRSNWPPWTFGQGTKVEIKR and report it.
1080

Find the measured ECL signal of Fab VH1-46_IGHD6-6*01_IGHJ1*01 S102A/S103P/S104F/H111F (APFF) & L6_IGKJ1*01 S28M (Fab, V domains shown, Fab; VH cloned into Plasmid A (CH1, His6 and Flag tags) and VL into Plasmid C (kappa CL); also called APFF / S28M) VH: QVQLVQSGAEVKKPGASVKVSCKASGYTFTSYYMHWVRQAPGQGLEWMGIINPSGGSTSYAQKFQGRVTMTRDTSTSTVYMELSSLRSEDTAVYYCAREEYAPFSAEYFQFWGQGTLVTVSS VL: EIVLTQSPATLSLSPGERATLSCRASQMVSSYLAWYQQKPGQAPRLLIYDASNRATGIPARFSGSGSGTDFTLTISSLEPEDFAVYYCQQRSNWPPWTFGQGTKVEIKR and report it.
313

Find the measured ECL signal of Fab VH1-46_IGHD6-6*01_IGHJ1*01 S102A/S103P/S104F/H111F (APFF) & L6_IGKJ1*01 S28H (Fab, V domains shown, Fab; VH cloned into Plasmid A (CH1, His6 and Flag tags) and VL into Plasmid C (kappa CL); also called APFF / S28H) VH: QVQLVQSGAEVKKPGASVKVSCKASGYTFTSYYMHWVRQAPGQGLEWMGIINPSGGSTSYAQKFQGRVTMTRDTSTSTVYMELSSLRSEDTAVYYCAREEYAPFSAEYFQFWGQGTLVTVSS VL: EIVLTQSPATLSLSPGERATLSCRASQHVSSYLAWYQQKPGQAPRLLIYDASNRATGIPARFSGSGSGTDFTLTISSLEPEDFAVYYCQQRSNWPPWTFGQGTKVEIKR and report it.
513

Find the measured ECL signal of Fab VH1-46_IGHD6-6*01_IGHJ1*01 S102A/S103P/S104F/H111F (APFF) & L6_IGKJ1*01 S28R (Fab, V domains shown, Fab; VH cloned into Plasmid A (CH1, His6 and Flag tags) and VL into Plasmid C (kappa CL); also called APFF / S28R) VH: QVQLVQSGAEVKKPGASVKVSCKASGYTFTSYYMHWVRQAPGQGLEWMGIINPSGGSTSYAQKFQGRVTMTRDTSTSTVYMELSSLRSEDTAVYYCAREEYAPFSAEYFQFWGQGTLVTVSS VL: EIVLTQSPATLSLSPGERATLSCRASQRVSSYLAWYQQKPGQAPRLLIYDASNRATGIPARFSGSGSGTDFTLTISSLEPEDFAVYYCQQRSNWPPWTFGQGTKVEIKR and report it.
378

Find the measured ECL signal of Fab VH1-46_IGHD6-6*01_IGHJ1*01 S102A/S103P/S104F/H111F (APFF) & L6_IGKJ1*01 S30L (Fab, V domains shown, Fab; VH cloned into Plasmid A (CH1, His6 and Flag tags) and VL into Plasmid C (kappa CL); also called APFF / S30L) VH: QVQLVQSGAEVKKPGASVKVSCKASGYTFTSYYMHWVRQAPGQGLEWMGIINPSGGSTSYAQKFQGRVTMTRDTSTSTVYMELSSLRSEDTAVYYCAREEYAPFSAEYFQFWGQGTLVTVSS VL: EIVLTQSPATLSLSPGERATLSCRASQSVLSYLAWYQQKPGQAPRLLIYDASNRATGIPARFSGSGSGTDFTLTISSLEPEDFAVYYCQQRSNWPPWTFGQGTKVEIKR and report it.
295

Find the measured ECL signal of Fab VH1-46_IGHD6-6*01_IGHJ1*01 S102A/S103P/S104F/H111F (APFF) & L6_IGKJ1*01 S30D (Fab, V domains shown, Fab; VH cloned into Plasmid A (CH1, His6 and Flag tags) and VL into Plasmid C (kappa CL); also called APFF / S30D) VH: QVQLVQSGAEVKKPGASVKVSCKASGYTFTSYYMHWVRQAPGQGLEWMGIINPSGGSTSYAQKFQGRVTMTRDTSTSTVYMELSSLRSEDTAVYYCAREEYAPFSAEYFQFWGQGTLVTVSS VL: EIVLTQSPATLSLSPGERATLSCRASQSVDSYLAWYQQKPGQAPRLLIYDASNRATGIPARFSGSGSGTDFTLTISSLEPEDFAVYYCQQRSNWPPWTFGQGTKVEIKR and report it.
434
